Reference for the values: paper PMC11292009

- System: myoglobin (Myo)
- measurement-notes: Intact protein MS photoaffinity labeling screen, myoglobin
- Type: binding
- stated-conditions: intact protein MS after 10 min irradiation
// MS labeling percentage, Myo lookup, one value per entry
Give the figure together with its unit, number first.

1. CC1(CCC(=O)N[C@@H](Cc2cccc(F)c2)CN2C(=O)c3ccccc3C2=O)N=N1; 0.4%
2. Cc1nn(C)cc1CNC(=O)CCC1(C)N=N1; 0.3%
3. CC1(CCC(=O)NCc2nc3ncccc3[nH]2)N=N1 [PhP053, N1=NC1(C)CCC(=O)NCc(n2)[nH]c(c23)cccn3]; 0.6%

Lab note: next compound to report on.
Please supply the value of reported MS labeling percentage, Myo for the item CC1(CCC(=O)NCCc2csc(-c3ccccc3)n2)N=N1 0.1%
